Target of assay: Fibrinogen beta chain (Homo sapiens) (UniProt P02675)
Sequence (P02675 whole entry, looked up): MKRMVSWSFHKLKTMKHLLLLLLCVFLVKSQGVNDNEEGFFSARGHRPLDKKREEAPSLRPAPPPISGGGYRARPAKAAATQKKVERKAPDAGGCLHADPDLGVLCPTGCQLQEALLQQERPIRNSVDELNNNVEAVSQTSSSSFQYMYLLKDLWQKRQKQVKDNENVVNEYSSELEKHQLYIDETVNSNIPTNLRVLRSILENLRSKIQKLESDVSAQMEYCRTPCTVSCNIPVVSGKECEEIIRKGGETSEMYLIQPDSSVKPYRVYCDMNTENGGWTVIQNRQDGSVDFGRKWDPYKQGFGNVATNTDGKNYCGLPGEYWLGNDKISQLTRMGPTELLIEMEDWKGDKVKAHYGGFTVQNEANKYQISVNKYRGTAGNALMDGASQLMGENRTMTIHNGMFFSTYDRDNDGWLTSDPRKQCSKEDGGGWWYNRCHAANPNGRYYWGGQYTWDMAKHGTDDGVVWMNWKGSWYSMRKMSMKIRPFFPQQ
Protocol notes: inhibitors of Tn6 peptide binding to fibrin DD(E), primary screen, biochemical, fluorescence polarization, human fibrin, Tn6 probe (AID 720509);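 further: 0% = median of all compound wells on the plate and 100% = blocking peptide control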
Experimental conditions: Fibrin DD(E) TRITC-Tn6 fluorescence polarization displacement; at 8.3 µM
In all, about 370,000 compounds went through this assay and about 760 (0.21%) were called active.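 How the source made its calls: active means inhibition above a per-campaign cutoff: mean of compounds within control limits plus 3 SD (cut at about 15% in these data); inactive means the rest.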 Many of the other results were omitted from the sample, so actives are more common in it than they were.
Outcomes: active, inactive

>>> assigned_class("O=C(Nc1ccc2cn[nH]c2c1)c1ccc(S(=O)(=O)N2CCOCC2)cc1")
"inactive"
>>> assigned_class("Cc1nc(-c2ccc(F)cc2)c(CC(=O)N2CCN(S(=O)(=O)c3ccc(F)cc3)CC2)s1")
"inactive"
>>> assigned_class("Cc1nnsc1S(=O)(=O)Cc1ccccc1Cl")
"active"
>>> assigned_class("O=C(CC(NC(=O)c1ccccc1)c1ccccc1)Nc1ccc(F)c(F)c1 (configuration not stated)")
"inactive"
>>> assigned_class("Cc1ccccc1N(C(=O)Cc1cccs1)C(C(=O)NC1CCCCC1)c1cn(C)nc1C (configuration not stated)")
"inactive"
>>> assigned_class("O=S(=O)(NCC1CN(S(=O)(=O)c2ccc3c(c2)OCCO3)C1)c1c(F)cccc1F")
"inactive"
>>> assigned_class("CCC1CCCCN1S(=O)(=O)Cc1ccccc1Cl (configuration not stated)")
"inactive"
>>> assigned_class("Cc1ccc(S(=O)(=O)NCC(=O)NNC(=O)c2ccc(Br)cc2)cc1C")
"inactive"
>>> assigned_class("Cc1cc2cc(CNC(=O)c3cccs3)ccc2[nH]1")
"inactive"
>>> assigned_class("O=C(c1ccc2c(c1)N(Cc1ccc(F)cc1)C(=O)CS2)N1CCOCC1")
"inactive"
>>> assigned_class("CC(=O)N/C(=C\\c1ccc(F)cc1)C(=O)NC(Cc1ccccc1)C(=O)O (configuration not stated)")
"inactive"
>>> assigned_class("CN(CC(=O)Nc1ccccc1Cl)C(=O)c1ccccc1SCC(=O)N1CCCC1")
"inactive"
>>> assigned_class("C[C@@H](C(=O)N1CCNCC1)n1cc(CCC(=O)O)nn1")
"inactive"
>>> assigned_class("CC(C)Cc1ccc(S(=O)(=O)N2CCN(C(=O)c3ccco3)CC2)cc1")
"inactive"
>>> assigned_class("C=C(C)CSc1nnc(-c2ccc(C)cc2)n1N")
"inactive"
>>> assigned_class("N#CC1=C(N)Oc2c(sc3ccccc23)C1c1ccco1 (configuration not stated)")
"inactive"
>>> assigned_class("COc1cc(NC(=O)c2ccc(CNc3c(N4CCCC4)c(=O)c3=O)cc2)cc(OC)c1OC")
"active"
>>> assigned_class("O=C(NCc1ccccc1)c1ccc(CNc2c(N3CCCC3)c(=O)c2=O)cc1")
"inactive"
>>> assigned_class("CC(C)c1cc(NCc2ccccn2)n2c(nc3ccccc32)c1C#N")
"inactive"
>>> assigned_class("COC(=O)C1=C(C)NC(=S)NC1c1ccc(OC)cc1 (configuration not stated)")
"inactive"
>>> assigned_class("O=C(NCc1nnc(SCC(=O)N2CCCCCC2)o1)c1ccc(F)cc1")
"inactive"
>>> assigned_class("O=C(NC1CCCCC1)c1ccc(CNc2c(N3CCOCC3)c(=O)c2=O)cc1")
"inactive"

====

Each entry below lists one item and its recorded inhibition value.
Target of assay: Fibrinogen beta chain (Homo sapiens) (UniProt P02675)
Protocol notes: inhibitors of Tn6 peptide binding to fibrin DD(E), primary screen, biochemical, fluorescence polarization, human fibrin, Tn6 probe (AID 720509);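 further: 0% = median of all compound wells on the plate and 100% = blocking peptide control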
Experimental conditions: Fibrin DD(E) TRITC-Tn6 fluorescence polarization displacement; at 8.3 µM; active compounds read high
The whole screen tested about 370,000 compounds, of which about 760 (0.21%) were called active. The entries come from a sample that favours actives as a whole.
Metric name: inhibition (%)

>>> numeric_result("O=C(CN1C(=O)CSC1=O)N1CCCC(Nc2ccc(F)cc2)C1 (stereo not given)")
-6.4
>>> numeric_result("CN(Cc1ccccc1)C(=O)CCC1CCN(C(=O)c2ccco2)CC1")
-1.06
>>> numeric_result("COCC(C)n1c(C)cc(C(=O)COc2ccc(C)nc2[N+](=O)[O-])c1C (stereo not given)")
2.28
>>> numeric_result("Oc1c(Cl)cc(Cl)c(Cl)c1Cc1c(O)c(Cl)cc(Cl)c1Cl")
-7.14
>>> numeric_result("CN1CCN(C(=O)c2ccc(-c3cc4nc(NCc5cccnc5)n(C)c(=O)c4s3)cc2)CC1")
-11.9
>>> numeric_result("O=S(=O)(Nc1ccc(-n2cnnn2)cc1)c1ccc(Cl)cc1")
-1.46
>>> numeric_result("COc1ccc(C2/C=C\\CN(S(=O)(=O)c3cccs3)CC(=O)N2Cc2ccc(F)cc2)cc1 (stereo not given)")
-0.69
>>> numeric_result("O=C(Nc1ccc(N2CCOCC2)cc1)c1cccc2c(-c3ccc(F)c(F)c3)coc12")
-1.54
>>> numeric_result("Cc1cccc(C)c1N1CCN(S(=O)(=O)N2CCOCC2)CC1")
-1.95
>>> numeric_result("O=C(COc1ccc(Cl)cc1)NCCSc1ccccc1")
-0.51
